molecular target: human URAT1 (Homo sapiens, UniProt Q96S37); construct: Human URAT1 full length cDNA was subcloned to expression vector pcDNA3.1; assay: Uric acid transport inhibitory test using human URAT1-expressing cells; details: human URAT1-expressing HEK293 cells, 14C-uric acid 50 μM, uptake 5 min, room temperature; read-out: hURAT1 IC50
Sequence (Q96S37 whole entry): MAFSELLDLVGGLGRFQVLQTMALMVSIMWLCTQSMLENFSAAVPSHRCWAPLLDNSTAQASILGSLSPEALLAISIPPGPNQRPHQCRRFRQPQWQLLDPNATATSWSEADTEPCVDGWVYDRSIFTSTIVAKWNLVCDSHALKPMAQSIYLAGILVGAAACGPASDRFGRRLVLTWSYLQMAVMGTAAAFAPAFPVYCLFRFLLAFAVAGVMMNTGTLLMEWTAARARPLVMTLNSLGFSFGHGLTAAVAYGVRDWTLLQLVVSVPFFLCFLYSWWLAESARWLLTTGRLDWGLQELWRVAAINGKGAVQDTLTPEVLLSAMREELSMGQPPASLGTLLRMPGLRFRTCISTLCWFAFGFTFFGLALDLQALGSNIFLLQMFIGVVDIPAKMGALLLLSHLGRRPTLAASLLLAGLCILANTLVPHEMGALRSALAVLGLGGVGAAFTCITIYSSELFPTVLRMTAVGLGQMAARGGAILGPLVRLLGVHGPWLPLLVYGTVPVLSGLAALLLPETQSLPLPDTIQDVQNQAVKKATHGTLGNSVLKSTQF
Would you kindly list IC50 for each of these compounds?

Solved cases (5 shown):
> print(dat)
                                   compound                             target.system  observed.result
1  Cc1cccc2c1OC(c1ccccc1)C(=O)N2CCC(=O)O (stereo not drawn)  human URAT1 (Homo sapiens, UniProt Q96S37)      0.3 to 3 µM
2  Cc1ccc2c(c1)OC(c1ccccc1)C(=O)N2CCC(=O)O (stereo not drawn)  human URAT1 (Homo sapiens, UniProt Q96S37)           ≥ 3 µM
3  CCc1cccc2c1OC(c1ccccc1)C(=O)N2CCC(=O)O (stereo not drawn)  human URAT1 (Homo sapiens, UniProt Q96S37)      0.3 to 3 µM
4                COC(=O)CN1C(=O)COc2ccccc21  human URAT1 (Homo sapiens, UniProt Q96S37)           ≥ 3 µM
5  CC(C)c1cccc2c1OC(C(C)C)C(=S)N2CCC(=O)O (stereo not drawn)  human URAT1 (Homo sapiens, UniProt Q96S37)      0.3 to 3 µM

Record IC50 per entry; entries follow.
1. Cc1cc(C)c2c(c1)N(CCC(=O)O)C(=O)[C@H](C(C)C)O2
2. O=C(O)CN1C(=O)CSc2ccccc21
3. CC(C)c1cccc2c1OC(C(C)C)C(=O)N2CCCC(=O)O (stereo not drawn)
4. CC(C)C1Oc2c(Br)cccc2N(CCC(=O)O)C1=O (stereo not drawn)
5. CC(C)c1cccc2c1OCC(=O)N2CCC(=O)O
6. CC(C)c1cccc2c1OC(C(C)C)C(=O)N2CC(C)(C)C(=O)O (stereo not drawn)
7. Cc1cc(Cl)cc2c1OC(C(C)C)C(=O)N2CCC(=O)O (stereo not drawn)
8. Cc1cc(Cl)cc2c1OC(c1ccccc1)CN2C(=O)/C=C/C(=O)O (stereo not drawn)

Result:
1: < 0.3 µM; 2: ≥ 3 µM; 3: ≥ 3 µM; 4: 0.3 to 3 µM; 5: ≥ 3 µM; 6: 0.3 to 3 µM; 7: < 0.3 µM; 8: 0.3 to 3 µM

Provide IC50 values for the following items, in order.
1. CC(C)c1cccc2c1OC(c1ccccc1)C(=O)N2CC(=O)O (stereo not drawn)
2. CC(C)C1Oc2c(Cl)cc(Cl)cc2N(CCC(=O)O)C1=O (stereo not drawn)

Result:
["≥ 3 µM", "< 0.3 µM"]
